Entry source: patent US20230310428A1

# systemUnderTest: various mutants of kinase EGFR (BaF3 cell lines stably transfected with kinase) (Homo sapiens, UniProt P00533, L858R)
# Construct: expressed in transfected cells; host or cells: BaF3
# Sequence (P00533 25-1210 L858R): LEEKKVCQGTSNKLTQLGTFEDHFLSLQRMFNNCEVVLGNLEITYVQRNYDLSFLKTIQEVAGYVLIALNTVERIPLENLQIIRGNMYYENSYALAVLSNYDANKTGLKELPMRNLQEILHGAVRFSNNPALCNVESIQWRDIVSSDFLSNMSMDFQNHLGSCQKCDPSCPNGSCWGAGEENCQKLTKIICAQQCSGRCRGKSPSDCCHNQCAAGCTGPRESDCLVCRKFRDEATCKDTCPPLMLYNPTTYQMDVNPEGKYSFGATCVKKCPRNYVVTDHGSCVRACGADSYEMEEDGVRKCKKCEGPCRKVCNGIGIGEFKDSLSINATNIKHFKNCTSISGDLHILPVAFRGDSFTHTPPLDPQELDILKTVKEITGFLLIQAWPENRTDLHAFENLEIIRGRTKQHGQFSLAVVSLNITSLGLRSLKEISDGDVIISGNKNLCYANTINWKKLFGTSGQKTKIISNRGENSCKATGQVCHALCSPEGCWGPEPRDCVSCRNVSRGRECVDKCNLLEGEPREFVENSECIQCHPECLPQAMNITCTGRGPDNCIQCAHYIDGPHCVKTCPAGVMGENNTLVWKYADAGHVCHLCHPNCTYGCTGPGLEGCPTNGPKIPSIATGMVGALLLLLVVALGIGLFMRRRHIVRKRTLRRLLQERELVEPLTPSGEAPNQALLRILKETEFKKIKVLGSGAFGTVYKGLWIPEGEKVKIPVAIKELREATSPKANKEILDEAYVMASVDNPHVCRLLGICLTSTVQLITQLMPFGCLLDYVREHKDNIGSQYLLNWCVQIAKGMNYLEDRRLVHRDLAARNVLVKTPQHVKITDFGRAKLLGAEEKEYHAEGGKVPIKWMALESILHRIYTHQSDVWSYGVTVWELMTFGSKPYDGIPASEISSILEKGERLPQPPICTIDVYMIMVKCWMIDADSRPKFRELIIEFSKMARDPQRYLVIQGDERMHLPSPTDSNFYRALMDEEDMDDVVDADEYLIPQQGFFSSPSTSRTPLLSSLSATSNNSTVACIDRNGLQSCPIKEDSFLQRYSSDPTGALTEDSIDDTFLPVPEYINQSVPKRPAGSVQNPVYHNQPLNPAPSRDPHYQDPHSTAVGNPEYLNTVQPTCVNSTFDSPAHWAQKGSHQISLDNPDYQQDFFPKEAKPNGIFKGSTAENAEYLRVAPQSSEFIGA
# experimentalDetails: Growth inhibitory activity of compounds on BaF3 cell lines stably transfected with kinase (MTS, 48 h)
# Assay type: cell-based
# conditionNotes: BaF3 cells stably transfected with EGFR L858R, read-out: IC50, growth inhibition, L858R
pIC50: −log10 of the molar value.
observationType: pIC50

compound	resultValue
COc1nc(N2CCC(N3CCN(C)CC3)CC2)ccc1Nc1ncc(Br)c(Nc2ccc3nccnc3c2N(C)S(=O)(=O)C2CC2)n1 [Compound I-216]	5.60 to 6.30
COc1cc(N2CCN(C)CC2)c(C)cc1Nc1ncc(Cl)c(Nc2ccc3nccnc3c2N(C2CC2)S(C)(=O)=O)n1 [Compound I-244]	≥ 7.30
COc1cc(N2CCC(N(C)C)C2)c(C)cc1Nc1ncc(F)c(Nc2ccc3nccnc3c2N(C)S(C)(=O)=O)n1 (stereo not shown) [Compound I-187]	6.30 to 7.30
COc1nc(N2CCN(C)CC2)ccc1Nc1ncc(Br)c(Nc2ccc3nccnc3c2N(C)S(C)(=O)=O)n1 [Compound I-55]	6.30 to 7.30
CCc1cc(Nc2ncc(Cl)c(Nc3ccc4nccnc4c3N(C)S(=O)(=O)CC)n2)c(OC)cc1N1CCC(N2CCN(C)CC2)CC1 [Compound I-115]	≥ 7.30
CCc1cc(Nc2ncc(Cl)c(Nc3ccc4nccnc4c3N(C)S(=O)(=O)C(F)(F)F)n2)c(OC)cc1N1CCC(N(C)C)C1 (stereo not shown) [Compound I-133]	5.60 to 6.30
C=Cc1cc(Nc2ncc(Cl)c(Nc3ccc4nccnc4c3N(C)S(C)(=O)=O)n2)c(OC(F)(F)F)cc1N1CCC(N2CCN(C)CC2)CC1 [Compound I-23]	≥ 7.30
CCc1cc(Nc2ncc(Cl)c(Nc3ccc4nccnc4c3N(C3CC3)S(C)(=O)=O)n2)c(OC(F)(F)F)cc1N1CCC(N2CCN(C)CC2)CC1 [Compound I-161]	6.30 to 7.30
COc1cc(N2CCC(N(C)C)C2)c(C)cc1Nc1ncc(Br)c(Nc2ccc3nccnc3c2N(C)S(=O)(=O)C2CC2)n1 (stereo not shown) [Compound I-222]	6.30 to 7.30
COc1nc(N2CCC(N3CCN(C)CC3)CC2)c(C)cc1Nc1ncc(Cl)c(Nc2ccc3nccnc3c2N(C2CC2)S(C)(=O)=O)n1 [Compound I-240]	5.60 to 6.30
CCc1cc(Nc2ncc(C(F)(F)F)c(Nc3ccc4nccnc4c3N(C)S(C)(=O)=O)n2)c(OC)nc1N1CCC(N2CCN(C)CC2)CC1 [Compound I-199]	≥ 7.30
Cc1cc(Nc2ncc(Br)c(Nc3ccc4nccnc4c3N(C)S(C)(=O)=O)n2)c(OC(C)C)cc1C1CCN(C)CC1 [Compound I-37]	5.60 to 6.30
C=Cc1cc(Nc2ncc([N+](=O)[O-])c(Nc3ccc4nccnc4c3N(C)S(C)(=O)=O)n2)c(OC(F)(F)F)cc1N1CCC(N2CCN(C)CC2)CC1 [Compound I-290]	5.60 to 6.30
COc1cc(N2CCC(N(C)C)CC2)c(C)cc1Nc1ncc(Br)c(Nc2ccc3nccnc3c2N(C)S(=O)(=O)C2CC2)n1 [Compound I-221]	6.30 to 7.30
CCc1cc(Nc2ncc(C3CC3)c(Nc3ccc4nccnc4c3N(C)S(C)(=O)=O)n2)ccc1N1CCC(N2CCN(C)CC2)CC1 [Compound I-293]	6.30 to 7.30
CCc1cc(Nc2ncc(F)c(Nc3ccc4nccnc4c3N(C)S(C)(=O)=O)n2)c(OC)cc1N1CCN(C)CC1 [Compound I-186]	≥ 7.30
CCc1cc(Nc2ncc(Br)c(Nc3ccc4nccnc4c3N(C)S(C)(=O)=O)n2)c(OC)cc1N1CCC(N2CCN(C)CC2)CC1 [Compound I-3]	≥ 7.30
COc1cc(N2CCC(N3CCN(C)CC3)CC2)c(C2CC2)cc1Nc1ncc(C2CC2)c(Nc2ccc3nccnc3c2N(C)S(C)(=O)=O)n1 [Compound I-292]	6.30 to 7.30
CCc1cc(Nc2ncc(Cl)c(Nc3ccc4nccnc4c3N(C)S(C)(=O)=O)n2)ccc1N1CCC(N2CCN(C)CC2)CC1 [Compound I-289]	≥ 7.30
COc1cc(N2CCC(N3CCN(C)CC3)CC2)c(CC2CC2)cc1Nc1ncc(Cl)c(Nc2ccc3nccnc3c2N(C)S(=O)(=O)C(C)C)n1 [Compound I-254]	6.30 to 7.30
COc1ccc(NC(=O)CN(C)C)cc1Nc1ncc(Br)c(Nc2ccc3nccnc3c2N(C)S(C)(=O)=O)n1 [Compound I-85]	6.30 to 7.30
CCc1cc(Nc2ncc(Br)c(Nc3ccc4nccnc4c3N(C)S(=O)(=O)C(F)(F)F)n2)c(OC(F)(F)F)cc1N1CCC(N2CCN(C)CC2)CC1 [Compound I-126]	5.60 to 6.30
CCc1cc(Nc2ncc(C)c(Nc3ccc4nccnc4c3N(C)S(C)(=O)=O)n2)c(OC)cc1N1CCC(N(C)C)C1 (stereo not shown) [Compound I-280]	≥ 7.30
CCc1cc(Nc2ncc(Cl)c(Nc3ccc4nccnc4c3N(C3CC3)S(C)(=O)=O)n2)c(OC)cc1N1CCC(N2CCN(C)CC2)CC1 [Compound I-160]	6.30 to 7.30
CCc1cc(Nc2ncc(Cl)c(Nc3ccc4nccnc4c3N(C)S(=O)(=O)C3CC3)n2)c(OC)cc1N1CCC(N(C)C)CC1 [Compound I-122]	≥ 7.30
